B1: Caulobacter ParB omega fusion; a variant is named by its letters at X, in order, B8GW30 (parent)
chain: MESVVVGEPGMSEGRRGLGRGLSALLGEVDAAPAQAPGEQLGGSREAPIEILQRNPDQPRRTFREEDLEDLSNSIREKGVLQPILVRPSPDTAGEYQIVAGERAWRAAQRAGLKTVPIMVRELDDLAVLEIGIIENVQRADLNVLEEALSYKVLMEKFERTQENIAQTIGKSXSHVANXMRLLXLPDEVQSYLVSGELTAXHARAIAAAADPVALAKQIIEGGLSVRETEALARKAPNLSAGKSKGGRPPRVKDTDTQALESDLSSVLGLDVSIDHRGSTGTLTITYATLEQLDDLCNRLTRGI

variants of: B1; assay: one-hybrid fitness for binding NBS DNA (the Noc-binding site; scaled: cognate 1, non-cognate 0); higher = stronger binding; conditions: with NBS DNA site
In all, about 81,000 sequences were measured (“one-hybrid fitness for binding NBS DNA”: median about -0.1, highest 2% from about 0.36 on). For the sample, the highest values were picked, then their nearest neighbours and some sequences at random.
Please provide measured one-hybrid fitness for binding NBS DNA for the entries that follow.

Q: Field request: one-hybrid fitness for binding NBS DNA | item: MTCD
Result: ≤ 0.2

Q: Using the record for RMLR , report its one-hybrid fitness for binding NBS DNA.
Result: 0.431

Q: Field request: one-hybrid fitness for binding NBS DNA | item: RAVS
Result: 0.239

Q: Query: one-hybrid fitness for binding NBS DNA; subject: AWVG
Result: ≤ 0.2

Q: Item under review: ADNG . Reported one-hybrid fitness for binding NBS DNA?
Result: ≤ 0.2

Q: I would be grateful if you could share the reported one-hybrid fitness for binding NBS DNA for QHHQ .
Result: ≤ 0.2

Q: # get_value(readout='one-hybrid fitness for binding NBS DNA', item= RMLN )
Result: ≤ 0.2

Q: // returns reported one-hybrid fitness for binding NBS DNA for input QVPL
Result: ≤ 0.2

Q: Any idea what one-hybrid fitness for binding NBS DNA was measured for QRDY ?
Result: 0.289

Q: If you can, please state the reported one-hybrid fitness for binding NBS DNA value of QREY .
Result: 0.256

Q: For PTRA , what is its reported one-hybrid fitness for binding NBS DNA?
Result: ≤ 0.2

Q: Entry MSPG has what one-hybrid fitness for binding NBS DNA?
Result: ≤ 0.2

Q: Fill in the blank: the reported one-hybrid fitness for binding NBS DNA of HTGY is ____.
Result: ≤ 0.2

Q: Which value of one-hybrid fitness for binding NBS DNA has been reported for QAYM in the records?
Result: ≤ 0.2

Q: Entry under review: LYGC . Reported one-hybrid fitness for binding NBS DNA?
Result: ≤ 0.2

Q: Any idea what its one-hybrid fitness for binding NBS DNA is? The variant is NQKS
Result: ≤ 0.2

Q: Quick one: one-hybrid fitness for binding NBS DNA of RMAD ?
Result: ≤ 0.2

Q: Consider the variant WWLN and give its measured one-hybrid fitness for binding NBS DNA.
Result: ≤ 0.2

Q: Could you tell me which one-hybrid fitness for binding NBS DNA is on file for QSYV ?
Result: ≤ 0.2

Q: Record request: one-hybrid fitness for binding NBS DNA value, item RAKH
Result: 0.36

Q: Name the recorded one-hybrid fitness for binding NBS DNA for QRLY .
Result: 0.447

Q: Fill in: one-hybrid fitness for binding NBS DNA of QAVM is ___
Result: ≤ 0.2

Q: Dear colleague, I am looking for the recorded one-hybrid fitness for binding NBS DNA of the following variant: MGSC
Result: ≤ 0.2

Q: # get_value(readout='one-hybrid fitness for binding NBS DNA', item= RIKP )
Result: ≤ 0.2

Q: Query (variant): PHAM ; field requested: one-hybrid fitness for binding NBS DNA
Result: ≤ 0.2

Q: # one-hybrid fitness for binding NBS DNA lookup, item PRVL
Result: ≤ 0.2

Q: What does the record list as one-hybrid fitness for binding NBS DNA for RMGN ?
Result: ≤ 0.2

Q: Can you look up the measured one-hybrid fitness for binding NBS DNA of QHYR for me?
Result: 0.471

Q: Given KTNT , state its recorded one-hybrid fitness for binding NBS DNA.
Result: 0.226

Q: Could you tell me which one-hybrid fitness for binding NBS DNA is on file for IHPM ?
Result: ≤ 0.2

Q: What value of one-hybrid fitness for binding NBS DNA has been recorded for this entry: QHRR
Result: 0.989

Q: Can you share its one-hybrid fitness for binding NBS DNA? I mean this variant: QFKT
Result: 0.388

Q: Consider the variant QTKM and give its measured one-hybrid fitness for binding NBS DNA.
Result: 0.563

Q: one-hybrid fitness for binding NBS DNA for RLIM ?
Result: ≤ 0.2

Q: Need one-hybrid fitness for binding NBS DNA of RSKY , thanks.
Result: 0.29

Q: # lookup: one-hybrid fitness for binding NBS DNA of QLGD
Result: ≤ 0.2

Q: May I ask what one-hybrid fitness for binding NBS DNA has been recorded for INTS ?
Result: ≤ 0.2

Q: Recorded one-hybrid fitness for binding NBS DNA for QCSV , please?
Result: ≤ 0.2

Q: # get_value(readout='one-hybrid fitness for binding NBS DNA', item= KTCN )
Result: ≤ 0.2

Q: So what's the measured one-hybrid fitness for binding NBS DNA for this one? AALA
Result: ≤ 0.2

Q: Tell me the measured one-hybrid fitness for binding NBS DNA of QLGN , please.
Result: ≤ 0.2
